Hey, just so you know, these numbers are from PubChem BioAssay AID651592.

Experiment: inhibitors of NFkB activation in CF airway cells, SAR follow-up, KKLEB cells, panel, IL8 HTRF, NFkB-GFP (AID 651592);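 also: immortalized cystic fibrosis airway epithelial KKLEB cells with an NF-kB GFP reporter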
Conditions: PAF/TNFa-induced NFkB-GFP / IL8 HTRF, CF-PAF assay, run 1
Reported pIC50 values for a set of compounds
# pIC50 = -log10(concentration in molar units)

O=C(Nc1ccc(N2CCN(C(=O)c3ccccc3F)CC2)cc1)c1ccncc1 ... 4.81
O=C(Nc1ccc(N2CCN(C(=O)c3ccccc3)CC2)cc1)c1cncc(Br)c1 ... 5.57
O=C(Nc1ccc(N2CCN(C(=O)c3ccccc3)CC2)cc1)c1ccncc1 ... 4.49
CCOc1ccc(NCc2cc3c(-c4ccc(F)cc4)nn(-c4ccccc4)c3[nH]c2=O)cc1 ... 4.85
O=C(Nc1ccc(N2CCN(C(=O)c3ccccc3F)CC2)cc1)c1cccc(Br)c1 ... 4.74
O=C(Nc1ccc(N2CCN(C(=O)c3ccccc3Cl)CC2)cc1)c1ccncc1 ... 5.14

Problem: Quick one: pIC50 for "CCOc1ccc(NCc2cc3c(C(C)(C)C)nn(-c4ccc(Cl)cc4)c3[nH]c2=O)cc1" ?
Result: 5.02

Problem: Lookup "O=C(Nc1ccc(N2CCN(C(=O)c3ccccc3F)CC2)cc1)c1ccccn1"
Result: 4.49

Problem: Lookup "CCOc1ccc(NCc2cc3c(-c4ccc(OC)c(OC)c4)nn(-c4ccccc4)c3[nH]c2=O)cc1"
Result: 4.73

---

Tested on: IL8
Test: inhibitors of NFkB activation in CF airway cells, SAR follow-up, KKLEB cells, panel, IL8 HTRF, NFkB-GFP (AID 651592);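 also: immortalized cystic fibrosis airway epithelial KKLEB cells with an NF-kB GFP reporter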
Settings: PAF/TNFa-induced NFkB-GFP / IL8 HTRF, TNFa-induced, mean of runs, mean IC50 across panel replicates
METRIC: IC50

O=C(Nc1ccc(N2CCN(C(=O)c3ccccc3Cl)CC2)cc1)c1cc(Br)cc(Br)c1 ... > 66 µM
O=C(Nc1ccc(N2CCN(C(=O)c3ccc(F)cc3)CC2)cc1)c1ccccn1 ... > 66 µM
O=C(Nc1ccc(N2CCN(C(=O)c3ccc(F)cc3)CC2)cc1)c1ccncc1 ... > 66 µM
O=C(Nc1ccc(N2CCN(C(=O)c3ccccc3Cl)CC2)cc1)c1ccncc1 ... 55.5 µM

Now turn to the next compound.
Problem: Quick one: IC50 for "O=C(Nc1ccc(N2CCN(C(=O)c3ccccc3F)CC2)cc1)c1ccncc1" ?
Result: > 66 µM

---

Reported pIC50 values for a set of compounds
Assay: inhibitors of NFkB activation in CF airway cells, SAR follow-up, KKLEB cells, panel, IL8 HTRF, NFkB-GFP (AID 651592);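 also: immortalized cystic fibrosis airway epithelial KKLEB cells with an NF-kB GFP reporter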
Conditions: PAF/TNFa-induced NFkB-GFP / IL8 HTRF, CF-PAF assay, run 1
# pIC50 = -log10(concentration in molar units)

O=C(Nc1ccc(N2CCN(C(=O)c3ccc(F)cc3)CC2)cc1)c1cccc(Br)c1 ... 4.67

Now turn to the next compound.
Problem: Quick one: pIC50 for "O=C(Nc1ccc(N2CCN(C(=O)c3ccccc3)CC2)cc1)c1cccc(Br)c1" ?
Result: 4.83

---

Biological target: Interleukin-8 (Homo sapiens)
Assay: inhibitors of NFkB activation in CF airway cells, SAR follow-up, KKLEB cells, panel, IL8 HTRF, NFkB-GFP (AID 651592);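 also: immortalized cystic fibrosis airway epithelial KKLEB cells with an NF-kB GFP reporter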
Conditions: PAF/TNFa-induced NFkB-GFP / IL8 HTRF, IL8, PAF-induced, run 1
Hi! Could you tag entries with IC50 below 3 µM as y, and those at or above as n? Much appreciated.

Cc1ccc(CNCc2cc3c(C(C)(C)C)nn(-c4ccccc4)c3[nH]c2=O)cc1 ... n
O=C(Nc1ccc(N2CCN(C(=O)c3ccccc3Cl)CC2)cc1)c1cccnc1 ... n
O=C(Nc1ccc(N2CCN(C(=O)c3ccccc3Cl)CC2)cc1)c1ccccc1 ... n
O=C(Nc1ccc(N2CCN(C(=O)c3ccccc3Cl)CC2)cc1)c1cccc(Br)c1 ... n
CCOc1ccc(NCc2cc3c(C)nn(-c4ccccc4)c3[nH]c2=O)cc1 ... n

Problem: Here's an entry: "CCOc1ccc(NCc2cc3c(-c4ccc(OC)c(OC)c4)nn(-c4ccccc4)c3[nH]c2=O)cc1" . Is its IC50 below 3 µM?
Result: y

Problem: Lookup "O=C(Nc1ccc(N2CCN(C(=O)c3ccccc3F)CC2)cc1)c1cc(Br)cc(Br)c1"
Result: n
